# target.or.test.system: chicken gizzard smooth muscle myosin subfragment-1 chemically crosslinked to cardiac or skeletal actin (Gallus gallus)
Entries annotated with measured pIC50
Units for pIC50: none; it is -log10 of a concentration expressed in mol/L.

Example entries and their recorded answers appear below.
compound.structure.string: N#Cc1cscc1-c1ccc(C(=O)NCc2cccnc2)c(NCCc2cccc(F)c2)n1
pIC50: 7.85

compound.structure.string: O=C(NCc1ncco1)c1ccc(-c2ccccc2)nc1NCCc1ccccn1
pIC50: 5.31

compound.structure.string: N#Cc1ccccc1-c1ccc(C(=O)N[C@@H](CN)C(N)=O)c(NCCc2cccc(F)c2)n1
pIC50: 6.09

Per the record, Cc1cc(C(=O)NC[C@H]2CCC(=O)N2CCCN)c(NCCc2cccc(F)c2)nc1-c1cnn(C)c1 has pIC50 of 6.24

Per the record, N#Cc1ccccc1-c1ccc(C(=O)NCCCCN)c(NCCc2cccc(F)c2)n1 has pIC50 of 6.38

###

# target.or.test.system: chicken gizzard smooth muscle myosin subfragment-1 chemically crosslinked to cardiac or skeletal actin (Gallus gallus, UniProt P10587)
observed.property: pIC50
Units for pIC50: none; it is -log10 of a concentration expressed in mol/L.

compound.structure.string: Cn1cc(-c2ccc(C(=O)NC[C@H]3CCCN3C(=O)CCN)c(NCCc3cccc(F)c3)n2)cn1
measured.result: 6.23

compound.structure.string: NCCNc1ncccc1CNC(=O)c1ccc(-c2cn[nH]c2)nc1NCCc1cccc(F)c1
measured.result: 6.91

compound.structure.string: O=C(NCc1cccnc1)c1ccc(-c2cccs2)nc1NCCc1cc(F)cc(F)c1
measured.result: 7.01

Per the record, CCc1ccc(-c2ccc(C(=O)NCc3cccnc3)c(NCCc3ccccn3)n2)cc1 has pIC50 of 5.55

Per the record, N#Cc1ccccc1-c1ccc(C(=O)NC[C@@H](N)C(N)=O)c(NCCc2cccc(F)c2)n1 has pIC50 of 6.49

Per the record, Cn1cc(-c2nc(NCCc3cccc(F)c3)c(C(=O)NC[C@H]3CCCN3C(=O)CCCNC(=O)OC(C)(C)C)cc2C#N)cn1 has pIC50 of 5.79

Per the record, O=C(NC[C@H]1CCCN1C(=O)CO)c1ccc(-c2cn[nH]c2)nc1NCCc1cccc(F)c1 has pIC50 of 5.93

Per the record, N#Cc1cccc(F)c1-c1ccc(C(=O)NCc2cccnc2)c(NCCc2cccc(F)c2)n1 has pIC50 of 7.07

Per the record, CC[C@@H](CO)CNC(=O)c1cc(F)c(-c2cnn(C)c2)nc1NCCc1cccc(F)c1 has pIC50 of 7.41

###

# target.or.test.system: chicken gizzard smooth muscle myosin subfragment-1 chemically crosslinked to cardiac or skeletal actin (Gallus gallus, UniProt P10587)
Entries annotated with measured IC50
Use nM as the unit, but write only the number.

Example entries and their recorded answers appear below.
compound.structure.string: N#Cc1ccccc1-c1ccc(C(=O)NCC2CCNCC2)c(NCCc2cccc(F)c2)n1
observed.property: IC50
result.unit: nM
measured.result: 336

compound.structure.string: CNCCNC(=O)CNC(=O)c1ccc(-c2ccccc2C#N)nc1NCCc1cccc(F)c1
observed.property: IC50
result.unit: nM
measured.result: 11100

compound.structure.string: C[C@@H](CNC(=O)c1cc(F)c(-c2cnn(C)c2)nc1NCCc1cccc(F)c1)NC(=O)CN
observed.property: IC50
result.unit: nM
measured.result: 1800

compound.structure.string: N#Cc1ccccc1-c1ccc(CC(=O)NCc2cccnc2)c(NCCc2cccc(F)c2)n1
observed.property: IC50
result.unit: nM
measured.result: 13200

compound.structure.string: N#Cc1ccccc1-c1ccc(C(=O)NCc2ccnn2CCN)c(NCCc2cccc(F)c2)n1
observed.property: IC50
result.unit: nM
measured.result: 32

compound.structure.string: COCCCNC(=O)c1ccc(-c2ccccc2C#N)nc1NCCc1cccc(F)c1
observed.property: IC50
result.unit: nM
measured.result: 396

Per the record, N#Cc1ccccc1-c1ccc(C(=O)NCc2cccc(C(N)=O)n2)c(NCCc2cccc(F)c2)n1 has IC50 of 60

Per the record, O=C(NCc1cccnc1)c1ccc(-c2csc(CO)c2)nc1NCCc1cccc(F)c1 has IC50 of 73

Per the record, CNC(=O)/C=C/c1ccc(-c2ccccc2)nc1NCCc1cccc(F)c1 has IC50 of 57400

Per the record, O=C(NCc1cccc(Br)n1)c1ccc(-c2cn[nH]c2)nc1NCCc1cccc(F)c1 has IC50 of 117

Per the record, O=C(NCc1cccnc1NCCO)c1ccc(-c2cn[nH]c2)nc1NCCc1cccc(F)c1 has IC50 of 65

Per the record, Cc1ccc(-c2ccc(C(=O)NCc3cccnc3)c(NCCc3cccc(F)c3)n2)c(C#N)c1 has IC50 of 996

###

# target.or.test.system: chicken gizzard smooth muscle myosin subfragment-1 chemically crosslinked to cardiac or skeletal actin (Gallus gallus, UniProt P10587)
Entries annotated with measured log10 IC50
Values below are the log10 of the recorded IC50, with nM as the unit.

compound: OC(CNCc1ccccn1)c1ccc(-c2ccccc2)nc1NCCc1cccc(F)c1 (stereo not drawn)
observed.property: log10 IC50
measured.result: 4.29
//
compound: O=C(NCc1cccnc1)c1ccc(-c2nccs2)nc1NCCc1ccccn1
observed.property: log10 IC50
measured.result: 3.94
//
compound: Cn1cc(-c2nc(NCCc3cccc(F)c3)c(C(=O)NCc3cc[nH]n3)cc2F)cn1
observed.property: log10 IC50
measured.result: 1.30
//
compound: Cn1cc(-c2nc(NCCc3cccc(F)c3)c(C(=O)NCc3cccc(CN)n3)cc2Br)cn1
observed.property: log10 IC50
measured.result: 1.43
//
compound: NC(=O)CNC(=O)c1ccc(-c2ccccc2)nc1NCCc1ccccc1
observed.property: log10 IC50
measured.result: 2.91

Per the record, N#Cc1ccccc1-c1ccc(C(=O)NCc2cccnc2)c(NCCc2ccccc2F)n1 has log10 IC50 of 1.45

Per the record, C[C@H](N)CNC(=O)c1ccc(-c2ccccc2C#N)nc1NCCc1cccc(F)c1 has log10 IC50 of 2.71

Per the record, C[C@H](N)C(=O)N1CCCC[C@@H]1CNC(=O)c1ccc(-c2ccccc2C#N)nc1NCCc1cccc(F)c1 has log10 IC50 of 1.72

Per the record, C[C@@H](CNC(=O)c1ccc(-c2ccccc2C#N)nc1NCCc1cccc(F)c1)NC(=O)CCN has log10 IC50 of 3.55

###

# target.or.test.system: chicken gizzard smooth muscle myosin subfragment-1 chemically crosslinked to cardiac or skeletal actin (Gallus gallus, UniProt P10587)
pIC50: −log10 of the molar value.
Tick T if pIC50 is 7 or greater. Tick F if pIC50 is less than 7.

Some solved entries appear below for comparison.
compound: N#Cc1ccccc1-c1ccc(C(=O)NCC2CCN(C(=O)CCN)C2)c(NCCc2cccc(F)c2)n1 (stereo not drawn)
class.name: F
//
compound: CNC(=O)[C@@H](N)CCNC(=O)c1ccc(-c2ccccc2C#N)nc1NCCc1cccc(F)c1
class.name: F
//
compound: Cn1cc(-c2ccc(C(=O)NC[C@H]3CCCN3C(=O)CNC(=O)OC(C)(C)C)c(NCCc3cccc(F)c3)n2)cn1
class.name: F
//
compound: Cn1cc(-c2ccc(C(=O)NC[C@@H]3CNCC(=O)N3)c(NCCc3cccc(F)c3)n2)cn1
class.name: F

Query: Is it the case that Cn1cc(-c2nc(NCCc3cccc(F)c3)c(C(=O)NCc3cccnc3)cc2F)cn1 has pIC50 reaching or exceeding 7?
Result: T

Query: Is it the case that CN(C)C(=NCc1cncc(CNC(=O)c2ccc(-c3ccccc3C#N)nc2NCCc2cccc(F)c2)c1)N(C)C has pIC50 reaching or exceeding 7?
Result: F

Query: Is it the case that N#Cc1ccccc1-c1ccc(C(=O)NC[C@H]2CCN2C(=O)CCCN)c(NCCc2cccc(F)c2)n1 has pIC50 reaching or exceeding 7?
Result: T

Query: Is it the case that C[C@@H](CNc1nc(-c2ccccc2)ccc1C(=O)NCc1cccnc1)c1ccccc1 has pIC50 reaching or exceeding 7?
Result: F

###

Entries annotated with measured IC50
# target.or.test.system: chicken gizzard smooth muscle myosin subfragment-1 chemically crosslinked to cardiac or skeletal actin (Gallus gallus, UniProt P10587)
Use µM as the unit, but write only the number.

Example entries and their recorded answers appear below.
compound.structure.string: CNC(=O)c1ccc(-c2ccccc2)nc1NCCc1cccc(C)c1
observed.property: IC50
measured.result: 6.75

compound.structure.string: N#Cc1ccccc1-c1ccc(C(=O)NC[C@H]2CCCN(C(=O)CCN)C2)c(NCCc2cccc(F)c2)n1
observed.property: IC50
measured.result: 0.173

compound.structure.string: Cn1cc(-c2ccc(C(=O)NC[C@H]3CCCN3C(=O)CCNC(=O)OC(C)(C)C)c(NCCc3cccc(F)c3)n2)cn1
observed.property: IC50
measured.result: 5.03

compound.structure.string: Cc1ccc(CNC(=O)c2ccc(-c3ccccc3C#N)nc2NCCc2cccc(F)c2)cn1
observed.property: IC50
measured.result: 0.426

compound.structure.string: N#Cc1ccccc1-c1ccc(C(=O)NC[C@H]2CN(C(=O)CCN)CCN2)c(NCCc2cccc(F)c2)n1
observed.property: IC50
measured.result: 11.2

Per the record, Cn1cc(-c2nc(NCCc3cccc(F)c3)c(C(=O)NC[C@H]3CCC(=O)N3CCCNC(=O)OC(C)(C)C)cc2C#N)cn1 has IC50 of 1.15

Per the record, O=Cc1ccccc1-c1ccc(C(=O)NCc2cccnc2)c(NCCc2ccccn2)n1 has IC50 of 8.75

Per the record, N#Cc1ccccc1-c1ccc(C(=O)NCCCC(=O)O)c(NCCc2cccc(F)c2)n1 has IC50 of 0.627

Per the record, Nc1ccc(CCNc2nc(-c3ccccc3)ccc2C(=O)NCc2cccnc2)cc1 has IC50 of 27.1
